Each record here notes measured MIC.
test system: Staphylococcus aureus; assay: Antimicrobial activity against methicillin-sensitive Staphylococcus aureus ATCC 13709; assay type: functional

compound	MIC
CCCCCCCCCCCCC/C(NCCCN)=C1\C(=O)CN(CCCCCC)C1=O	2 µg/mL
CCCCCCC(=O)N1CC(=O)/C(=C(\CCCCCC)NC2CCCCC2)C1=O	> 32 µg/mL
C/C(NCCOc1ccccc1Cl)=C1/C(=O)CNC1=O	> 32 µg/mL
CCCCC/C(NC(C)CCCN(CC)CC)=C1\C(=O)C(CCSC)N(C(=O)CC(C)CC(C)(C)C)C1=O (stereo not given)	16 µg/mL
CCCCCCC/C=C/C(=O)N1C(=O)/C(=C(\C)Nc2ccc(N3CCOCC3)cc2)C(=O)C1CC(C)C (stereo not given)	> 32 µg/mL
CCCCOCCCN/C(C)=C1/C(=O)N2[C@@H](C(C)(C)C)OC[C@]2(C(=O)OCC)C1=O	> 32 µg/mL
CCCCCCN/C(=C1/C(=O)CNC1=O)c1ccccc1	> 32 µg/mL
CCOC(=O)[C@]12CO[C@H](C(C)(C)C)N1C(=O)/C(=C(\C)N1CCN(C3CCCCC3)CC1)C2=O	> 32 µg/mL
CCCCCCCCCCC/C(Nc1ccc(N)cc1)=C1\C(=O)CN(CCCCCC)C1=O	> 32 µg/mL
CCCC(=O)N1CC(=O)/C(=C(\CC23CC4CC(CC(C4)C2)C3)NCCCN2CCCCC2C)C1=O (stereo not given)	64 µg/mL
